# Tested on: M19-MEL melanoma
# protocol_summary: NCI tumour cell line growth inhibition, 48 h
Entries annotated with measured TGI
Field format: number, assumed µM, no unit text.

Qu. Look up TGI with M19-MEL melanoma for this molecule: "Cc1cc(=O)cc2sc3c(C)cccc3nc1-2"
Ans. 36.5

Qu. Look up TGI with M19-MEL melanoma for this molecule: "C=CC(=O)c1ccc2c(c1)OCCOCCOCCOCCOCCO2"
Ans. 32.2

Others:
Qu. Look up TGI with M19-MEL melanoma for this molecule: "O=[Se]([O-])c1ccccc1.O=[Se]([O-])c1ccccc1.[OH3+].[OH3+].[Pt+2]"
Ans. 44.8
